Give EC50 for every item shown.
# Test system: T1, human TNF-α (human, UniProt P01375 77-233)
# T1 construct: It was biotinylated in the ELISA and unlabelled in the L929 bioassay (prepared at Abbott Bioresearch Center); also called hTNFa; hTNF
# T1 sequence (P01375 77-233 R107D limits assumed): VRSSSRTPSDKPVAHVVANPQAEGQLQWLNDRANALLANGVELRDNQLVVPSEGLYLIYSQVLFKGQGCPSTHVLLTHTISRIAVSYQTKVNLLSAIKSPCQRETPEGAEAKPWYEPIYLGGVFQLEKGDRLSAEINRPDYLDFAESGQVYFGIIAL
# Assay info: ELISA: IgG captured on goat anti-human IgG-Fc, biotin-human TNF titrated, streptavidin-HRP
Please format your answer as a value with the unit trailing.

Value lookup for EC50; key = hMAK195-AM25 (antibody, V domains shown, Full-length IgG; also called S4-24; hMAK195 S4-24) VH: EVQLVESGGGLVQPGGSLRLSCAASGFTFSNYGVTWVRQAPGKGLEWVSMIWADGSTHYASSVKGRFTISRDNSKNTLYLQMNSLRAEDTAVYYCAREWQHGPVAYWGQGTLVTVSS VL: DIQMTQSPSSLSASVGDRVTITCRASQLVSSAVAWYQQKPGKAPKLLIYWASTLHTGVPSRFSGSGSGTDFTLTISSLQPEDFATYYCQQHYRTPFTFGQGTKLEIKR 0.052 nM

Value lookup for EC50; key = hMAK195-AM17 (antibody, V domains shown, Full-length IgG; also called rHC22; hMAK195 rHC22) VH: EVQLVESGGGLVQPGGSLRLSCAASGFTFSNYGVTWVRQAPGKGLEWVSMIWADGSTDYADTVKGRFTISRDNSKNTLYLQMNSLRAEDTAVYYCAREWQHGPVAYWGQGTLVTVSS VL: DIQMTQSPSSLSASVGDRVTITCKASQAVSSAVAWYQQKPGKAPKLLIYWASTRHTGVPSRFSGSGSGTDFTLTISSLQPEDFATYYCQQHYSTPFTFGQGTKLEIKR 0.056 nM

Value lookup for EC50; key = hMAK195-AM16 (antibody, V domains shown, Full-length IgG; also called rHC19; hMAK195 rHC19) VH: EVQLVESGGGLVQPGGSLRLSCAASGFTFSNYGVTWVRQAPGKGLEWVSMIWADGSTHYASSVKGRFTISRDNSKNTLYLQMNSLRAEDTAVYYCAREWQHGPAAYWGQGTLVTVSS VL: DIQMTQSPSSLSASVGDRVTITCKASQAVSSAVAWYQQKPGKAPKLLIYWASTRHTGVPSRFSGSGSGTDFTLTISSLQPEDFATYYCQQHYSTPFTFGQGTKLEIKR 0.056 nM
